# Assay procedure: JC-1 mitochondrial potential readout, lung cancer cells – cell-based, A549, JC-1 fluorescence, basal, 24 h, 100 nL, profiling panel (AID 1138);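 note: A549 lung adenocarcinoma cells under basal conditions with no added stimulus; test concentration not given here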
# Experimental conditions: higher = more signal
The following molecules are shown together with reported z-score values.

[[record]]
molecule = "COC(=O)[C@@]1(CCC(=O)OC(C)(C)C)N=C(c2ccc(OCCCO)cc2)O[C@H]1c1ccccc1"
result = -0.4

[[record]]
molecule = "COC(=O)[C@H](Cc1ccccc1)N[C@H](/C=C/C1CC1)[C@@H](O)Cc1ccccc1"
result = -0.0444

[[record]]
molecule = "CC(CO)N1C(=O)[C@@H]2C3C(=O)OCCC/C=C\\[C@H]3OC23C=CCN(CCN2CCOCC2)C(=O)[C@@H]13 (some centres not stated)"
result = 1.08

[[record]]
molecule = "COc1ccc([Si](C)(C)[C@H]2[C@H](CCO)O[C@@]3(C(=O)N(Cc4ccccc4)c4ccc(N5CCCCC5=O)cc43)[C@@H]2C)cc1"
result = 2.23

[[record]]
molecule = "COC(=O)[C@@]1(Cc2ccc(OC)cc2)[C@H]2c3cc(C(=O)N(C)C)n(Cc4ccc(C(F)(F)F)nc4)c3C[C@H]2CN1C(=O)c1ccccc1"
result = 0.549


Problem: Bench note: what z-score did O=C1OCC=C[C@H]2OC34C=CCN(CCN5CCOCC5)C(=O)[C@H]3N(CCO)C(=O)[C@@H]4[C@@H]12 (some centres not stated) show?
Solution: 0.587

Problem: Bench note: what z-score did `COCC(=C=CC[C@H](O)c1ccccc1OCCO)CCO` show?
Solution: 0.417

Problem: Bench note: what z-score did `C=CC[C@]1(C(N)=O)COC(c2ccc(OCCCO)cc2)=N1` show?
Solution: 0.359

====

# Tgt: Neurogenic locus notch homolog protein 2 (Homo sapiens) (UniProt Q04721)
# Sequence (Q04721 whole entry, looked up): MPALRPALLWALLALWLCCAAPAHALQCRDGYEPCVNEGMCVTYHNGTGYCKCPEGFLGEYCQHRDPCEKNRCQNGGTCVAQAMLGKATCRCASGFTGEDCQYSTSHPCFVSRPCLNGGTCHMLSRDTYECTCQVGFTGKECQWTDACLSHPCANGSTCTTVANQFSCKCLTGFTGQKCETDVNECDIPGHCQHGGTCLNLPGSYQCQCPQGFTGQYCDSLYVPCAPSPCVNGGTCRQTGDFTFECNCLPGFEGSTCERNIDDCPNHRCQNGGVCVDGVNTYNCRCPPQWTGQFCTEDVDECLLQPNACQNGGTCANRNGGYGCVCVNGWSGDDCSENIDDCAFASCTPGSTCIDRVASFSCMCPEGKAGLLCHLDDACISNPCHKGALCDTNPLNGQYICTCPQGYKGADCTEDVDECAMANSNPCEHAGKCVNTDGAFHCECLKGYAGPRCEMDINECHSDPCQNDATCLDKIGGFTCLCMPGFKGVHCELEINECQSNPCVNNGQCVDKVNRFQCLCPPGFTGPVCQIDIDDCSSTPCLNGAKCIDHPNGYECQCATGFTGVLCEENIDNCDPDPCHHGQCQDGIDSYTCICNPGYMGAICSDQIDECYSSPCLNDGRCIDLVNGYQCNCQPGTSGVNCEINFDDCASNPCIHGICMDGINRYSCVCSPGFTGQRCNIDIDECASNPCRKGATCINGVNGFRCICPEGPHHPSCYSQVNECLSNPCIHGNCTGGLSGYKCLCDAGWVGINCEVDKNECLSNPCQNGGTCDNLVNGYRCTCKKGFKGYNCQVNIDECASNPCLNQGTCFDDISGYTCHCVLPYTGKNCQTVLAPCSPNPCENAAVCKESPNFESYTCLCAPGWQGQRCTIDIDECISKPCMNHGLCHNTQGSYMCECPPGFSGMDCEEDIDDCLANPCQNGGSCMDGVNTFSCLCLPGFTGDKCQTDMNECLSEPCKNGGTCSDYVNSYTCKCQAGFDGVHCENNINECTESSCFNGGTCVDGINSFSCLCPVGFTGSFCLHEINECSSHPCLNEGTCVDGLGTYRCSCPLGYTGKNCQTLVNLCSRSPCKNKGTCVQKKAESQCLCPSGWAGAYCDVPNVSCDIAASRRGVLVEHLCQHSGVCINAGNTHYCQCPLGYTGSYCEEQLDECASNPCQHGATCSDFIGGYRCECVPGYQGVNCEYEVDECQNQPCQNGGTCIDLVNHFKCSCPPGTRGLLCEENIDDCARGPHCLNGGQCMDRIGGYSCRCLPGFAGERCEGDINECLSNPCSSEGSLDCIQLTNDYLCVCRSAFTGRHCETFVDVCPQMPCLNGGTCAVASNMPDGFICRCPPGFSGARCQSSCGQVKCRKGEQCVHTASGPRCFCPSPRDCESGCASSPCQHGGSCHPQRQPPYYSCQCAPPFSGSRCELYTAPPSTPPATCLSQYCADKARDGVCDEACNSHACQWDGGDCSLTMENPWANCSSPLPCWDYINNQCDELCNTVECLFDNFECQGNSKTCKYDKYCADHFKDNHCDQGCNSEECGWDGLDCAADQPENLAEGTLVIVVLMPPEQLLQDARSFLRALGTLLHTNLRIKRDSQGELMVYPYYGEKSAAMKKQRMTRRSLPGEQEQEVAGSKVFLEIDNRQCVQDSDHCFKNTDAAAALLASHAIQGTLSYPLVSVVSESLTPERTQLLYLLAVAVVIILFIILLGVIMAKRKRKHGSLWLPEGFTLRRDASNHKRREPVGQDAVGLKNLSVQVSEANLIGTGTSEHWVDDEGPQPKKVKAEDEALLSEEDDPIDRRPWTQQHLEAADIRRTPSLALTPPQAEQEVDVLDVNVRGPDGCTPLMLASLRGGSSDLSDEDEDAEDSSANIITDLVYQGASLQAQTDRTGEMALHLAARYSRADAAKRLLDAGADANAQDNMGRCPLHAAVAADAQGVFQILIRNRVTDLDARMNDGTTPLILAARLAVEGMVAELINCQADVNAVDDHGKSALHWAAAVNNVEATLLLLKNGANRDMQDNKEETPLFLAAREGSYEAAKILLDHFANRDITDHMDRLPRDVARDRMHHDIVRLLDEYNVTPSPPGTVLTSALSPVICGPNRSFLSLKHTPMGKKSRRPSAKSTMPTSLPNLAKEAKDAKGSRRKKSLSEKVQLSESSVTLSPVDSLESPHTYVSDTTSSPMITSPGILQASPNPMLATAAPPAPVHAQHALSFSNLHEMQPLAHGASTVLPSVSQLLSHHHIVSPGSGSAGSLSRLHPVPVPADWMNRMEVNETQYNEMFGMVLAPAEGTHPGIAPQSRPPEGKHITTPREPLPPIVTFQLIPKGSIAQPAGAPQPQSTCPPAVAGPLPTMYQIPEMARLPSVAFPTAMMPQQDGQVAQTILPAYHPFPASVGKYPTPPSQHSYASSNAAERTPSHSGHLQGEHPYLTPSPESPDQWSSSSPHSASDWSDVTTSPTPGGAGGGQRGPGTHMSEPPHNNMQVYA
# Assay procedure: small molecules binding Notch2 protein – biochemical, small-molecule microarray, 635 nm fluorescence, stem cell growth factors, primary screen (AID 1073)
# Experimental conditions: higher = more signal
composite z-score below 0.7 gives rule not met; composite z-score at or above it gives rule met.

Completed entries (count: 5):
[[record]]
compound = "CO[C@H]1O[C@H](CO)[C@@H](OC(=O)Nc2ccccc2-c2ccccc2)[C@H](OC(=O)Nc2ccccc2-c2ccccc2)[C@@H]1OC(=O)Nc1ccccc1-c1ccccc1"
assigned_category = "rule met"

[[record]]
compound = "COCCCNC(=O)[C@@H]1c2ccccc2C(=O)N(Cc2ccccc2OC)[C@H]1c1ccc(CO)cc1"
assigned_category = "rule not met"

[[record]]
compound = "CO[C@H]1O[C@H](CO)[C@@H](OC(=O)Nc2ccc(Br)cc2)[C@@H]2OC(=O)[C@H](Cc3cccc(Br)c3)C/C=C/C[C@@H](Cc3cccc(Br)c3)C(=O)O[C@@H]12"
assigned_category = "rule not met"

[[record]]
compound = "C=C(CCCC)/C(=C/C[C@@H](OC(C)=O)c1ccccc1OCCO)c1cc(C(=O)OC)ccc1OC"
assigned_category = "rule not met"

[[record]]
compound = "Cc1ccc(/C=C/C=O)cc1"
assigned_category = "rule not met"


Problem: Hi, just wondering whether N#Cc1ccc(C(O)C2C=CC3C(=O)N(c4ccccc4)C(=O)C3N2Nc2ccccc2F)cc1 (stereo unspecified) shows composite z-score of 0.7 or higher.
Solution: rule met

Problem: Hi, just wondering whether COc1cc(OC)c(C(O)C2C=CC3C(=O)NC(=O)C3N2Nc2ccccn2)cc1Br (stereo unspecified) shows composite z-score of 0.7 or higher.
Solution: rule met

Problem: Hi, just wondering whether `NC(=O)[C@@]1(Cc2ccccc2)N=C(c2ccc(OCCCO)cc2)O[C@H]1c1ccccc1` shows composite z-score of 0.7 or higher.
Solution: rule met

Problem: Hi, just wondering whether OB1C=CCC(CCc2ccccc2)O1 (stereo unspecified) shows composite z-score of 0.7 or higher.
Solution: rule not met

Problem: Hi, just wondering whether `CCCC(=O)N(CCc1c[nH]c2ccccc12)[C@@H]1CC(C(=O)NCCO)=C[C@H](Oc2c(I)cc(CO)cc2OC)[C@H]1O` shows composite z-score of 0.7 or higher.
Solution: rule not met

Problem: Hi, just wondering whether `COc1ccc([Si](C)(C)[C@H]2[C@H](CC(=O)N3CCC[C@H]3CO)O[C@@]3(C(=O)N(Cc4cccc(N5CCOC5=O)c4)c4ccccc43)[C@@H]2C)cc1` shows composite z-score of 0.7 or higher.
Solution: rule not met

Problem: Hi, just wondering whether CC(CO)N1C(=O)[C@@H]2C3C(=O)OCCC/C=C\[C@H]3OC23C=CCN(CCN2CCOCC2)C(=O)[C@@H]13 (stereo partly specified) shows composite z-score of 0.7 or higher.
Solution: rule not met
